The values you see were collected from paper PMC5778071.

experimental system: recombinant human MMP-12 (Homo sapiens, UniProt P39900)
Sequence (P39900 106-470): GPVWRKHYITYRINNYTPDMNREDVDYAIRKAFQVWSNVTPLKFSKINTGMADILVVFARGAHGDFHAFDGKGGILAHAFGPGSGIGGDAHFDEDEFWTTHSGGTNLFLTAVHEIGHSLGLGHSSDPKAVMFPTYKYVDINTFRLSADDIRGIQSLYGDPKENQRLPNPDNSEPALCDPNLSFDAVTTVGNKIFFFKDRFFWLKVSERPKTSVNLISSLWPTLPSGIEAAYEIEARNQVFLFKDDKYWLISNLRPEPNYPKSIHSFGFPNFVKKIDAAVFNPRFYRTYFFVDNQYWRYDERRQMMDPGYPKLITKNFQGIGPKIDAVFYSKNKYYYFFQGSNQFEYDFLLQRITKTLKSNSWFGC
assay method text: Competitive fluorogenic enzyme activity assay, MMP-12
protocol conditions: fluorogenic substrate 5 μM, 5 nM enzyme, 30 min; read-out: IC50 toward MMP-12
measure name: pIC50
Worth noting: pIC50 values are minus log10 of concentrations stated in mol/L.

Req: Quick check: pIC50 of CC(C)C[C@H](CC(=O)NO)C(=O)N[C@@H](Cc1ccc(I)cc1)C(=O)N[C@@H](CCCCNC(=O)c1ccc(F)cc1)C(N)=O [IPFB] ?
Resp: 7.91

Req: Another: CC(C)C[C@H](CC(=O)NO)C(=O)N[C@@H](Cc1ccccc1)C(=O)N[C@@H](CCCCN)C(N)=O [ML5, reference compound]
Resp: 8.55

Req: Another: CC(C)C[C@H](CC(=O)NO)C(=O)N[C@@H](Cc1ccc(I)cc1)C(=O)N[C@@H](CCCCNC(=O)C(C)F)C(N)=O (stereo partly shown) [^18F-IPFP]
Resp: 8.82

Req: Another: CC(C)C[C@H](CC(=O)NO)C(=O)N[C@@H](Cc1ccc(I)cc1)C(=O)N[C@@H](CCCCNC(=O)C(C)F)C(N)=O (stereo partly shown) [IPFP]
Resp: 8.82

Req: Another: CC(C)C[C@H](CC(=O)NO)C(=O)N[C@@H](Cc1ccc(I)cc1)C(=O)N[C@@H](CCCCN)C(N)=O [I-ML5]
Resp: 8.64

Req: Another: CC(C)C[C@H](CC(=O)NO)C(=O)N[C@@H](Cc1ccccc1)C(=O)N[C@@H](CCCCNC(=O)C(C)F)C(N)=O (stereo partly shown) [PFP]
Resp: 8.35

Req: Another: CC(C)C[C@H](CC(=O)NO)C(=O)N[C@@H](Cc1ccccc1)C(=O)N[C@@H](CCCCNC(=O)c1ccc(F)cc1)C(N)=O [PFB]
Resp: 7.62

====

experimental system: recombinant human MMP-2 (Homo sapiens)
Sequence (P08253 110-660): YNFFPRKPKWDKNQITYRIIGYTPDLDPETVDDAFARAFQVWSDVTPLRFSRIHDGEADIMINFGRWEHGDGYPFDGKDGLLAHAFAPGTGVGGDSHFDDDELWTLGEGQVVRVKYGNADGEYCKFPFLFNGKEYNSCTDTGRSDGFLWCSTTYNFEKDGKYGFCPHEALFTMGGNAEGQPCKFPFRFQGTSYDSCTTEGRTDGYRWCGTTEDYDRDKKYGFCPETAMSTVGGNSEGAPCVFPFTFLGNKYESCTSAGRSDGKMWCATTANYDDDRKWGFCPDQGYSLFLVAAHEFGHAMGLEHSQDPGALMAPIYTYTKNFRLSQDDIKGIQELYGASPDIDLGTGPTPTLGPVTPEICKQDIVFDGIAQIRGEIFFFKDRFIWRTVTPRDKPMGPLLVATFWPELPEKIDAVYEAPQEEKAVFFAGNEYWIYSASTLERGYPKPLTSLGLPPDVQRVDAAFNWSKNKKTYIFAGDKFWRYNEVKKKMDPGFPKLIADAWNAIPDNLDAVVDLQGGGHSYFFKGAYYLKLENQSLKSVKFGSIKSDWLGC
assay method text: Competitive fluorogenic enzyme activity assay, MMP-2
protocol conditions: fluorogenic substrate 5 μM, 5 nM enzyme, 30 min; read-out: IC50 toward MMP-2
measure name: IC50 (nM)
Use nM as the unit, but write only the number.

Req: Quick check: IC50 of CC(C)C[C@H](CC(=O)NO)C(=O)N[C@@H](Cc1ccc(I)cc1)C(=O)N[C@@H](CCCCNC(=O)c1ccc(F)cc1)C(N)=O ?
Resp: 29.1

Req: Another: CC(C)C[C@H](CC(=O)NO)C(=O)N[C@@H](Cc1ccc(I)cc1)C(=O)N[C@@H](CCCCN)C(N)=O
Resp: 3.7

Req: Another: CC(C)C[C@H](CC(=O)NO)C(=O)N[C@@H](Cc1ccc(I)cc1)C(=O)N[C@@H](CCCCNC(=O)C(C)F)C(N)=O (stereo partly drawn)
Resp: 4.4

Req: Another: CC(C)C[C@H](CC(=O)NO)C(=O)N[C@@H](Cc1ccccc1)C(=O)N[C@@H](CCCCN)C(N)=O [ML5, reference compound]
Resp: 9.6

Req: Another: CC(C)C[C@H](CC(=O)NO)C(=O)N[C@@H](Cc1ccccc1)C(=O)N[C@@H](CCCCNC(=O)C(C)F)C(N)=O (stereo partly drawn)
Resp: 12.5

Req: Another: CC(C)C[C@H](CC(=O)NO)C(=O)N[C@@H](Cc1ccccc1)C(=O)N[C@@H](CCCCNC(=O)c1ccc(F)cc1)C(N)=O
Resp: 77.7

====

Record form. Attribute: pIC50. Fill in for each entry.
experimental system: recombinant human MMP-13 (Homo sapiens)
assay method text: Competitive fluorogenic enzyme activity assay, MMP-13
protocol conditions: fluorogenic substrate 5 μM, 5 nM enzyme, 30 min; read-out: IC50 toward MMP-13
Worth noting: pIC50 values are minus log10 of concentrations stated in mol/L.

Req: Quick check: pIC50 of CC(C)C[C@H](CC(=O)NO)C(=O)N[C@@H](Cc1ccc(I)cc1)C(=O)N[C@@H](CCCCNC(=O)C(C)F)C(N)=O (stereo partly drawn) ?
Resp: 8.39

Req: Another: CC(C)C[C@H](CC(=O)NO)C(=O)N[C@@H](Cc1ccccc1)C(=O)N[C@@H](CCCCNC(=O)c1ccc(F)cc1)C(N)=O
Resp: 7.18

Req: Another: CC(C)C[C@H](CC(=O)NO)C(=O)N[C@@H](Cc1ccccc1)C(=O)N[C@@H](CCCCNC(=O)C(C)F)C(N)=O (stereo partly drawn)
Resp: 7.95

Req: Another: CC(C)C[C@H](CC(=O)NO)C(=O)N[C@@H](Cc1ccc(I)cc1)C(=O)N[C@@H](CCCCNC(=O)c1ccc(F)cc1)C(N)=O
Resp: 7.35

Req: Another: CC(C)C[C@H](CC(=O)NO)C(=O)N[C@@H](Cc1ccccc1)C(=O)N[C@@H](CCCCN)C(N)=O [ML5, reference compound]
Resp: 7.65

Req: Another: CC(C)C[C@H](CC(=O)NO)C(=O)N[C@@H](Cc1ccc(I)cc1)C(=O)N[C@@H](CCCCN)C(N)=O
Resp: 7.93

====

experimental system: recombinant human MMP-9 (Homo sapiens)
Sequence (P14780 94-707): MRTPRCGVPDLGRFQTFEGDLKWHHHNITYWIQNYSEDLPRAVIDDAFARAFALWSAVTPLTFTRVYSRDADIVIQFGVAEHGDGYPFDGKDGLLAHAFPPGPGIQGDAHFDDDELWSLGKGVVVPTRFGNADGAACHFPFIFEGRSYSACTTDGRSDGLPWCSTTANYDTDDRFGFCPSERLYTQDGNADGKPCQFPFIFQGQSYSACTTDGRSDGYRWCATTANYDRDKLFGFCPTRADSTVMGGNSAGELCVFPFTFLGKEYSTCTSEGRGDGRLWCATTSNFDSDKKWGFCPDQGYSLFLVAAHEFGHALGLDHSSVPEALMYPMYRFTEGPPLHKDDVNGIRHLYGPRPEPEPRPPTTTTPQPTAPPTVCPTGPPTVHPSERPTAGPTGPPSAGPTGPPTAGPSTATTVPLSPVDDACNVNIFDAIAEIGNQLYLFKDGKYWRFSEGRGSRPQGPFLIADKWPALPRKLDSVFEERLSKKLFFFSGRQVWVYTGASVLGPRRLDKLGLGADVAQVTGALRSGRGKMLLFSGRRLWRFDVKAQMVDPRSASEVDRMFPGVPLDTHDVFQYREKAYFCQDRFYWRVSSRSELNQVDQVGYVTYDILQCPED
assay method text: Competitive fluorogenic enzyme activity assay, MMP-9
protocol conditions: fluorogenic substrate 5 μM, 5 nM enzyme, 30 min; read-out: IC50 toward MMP-9
measure name: pIC50
Worth noting: pIC50 values are minus log10 of concentrations stated in mol/L.

Req: Quick check: pIC50 of CC(C)C[C@H](CC(=O)NO)C(=O)N[C@@H](Cc1ccccc1)C(=O)N[C@@H](CCCCNC(=O)c1ccc(F)cc1)C(N)=O [PFB] ?
Resp: 6.75

Req: Another: CC(C)C[C@H](CC(=O)NO)C(=O)N[C@@H](Cc1ccc(I)cc1)C(=O)N[C@@H](CCCCNC(=O)c1ccc(F)cc1)C(N)=O [IPFB]
Resp: 6.83

Req: Another: CC(C)C[C@H](CC(=O)NO)C(=O)N[C@@H](Cc1ccc(I)cc1)C(=O)N[C@@H](CCCCNC(=O)C(C)F)C(N)=O (stereo partly drawn) [IPFP]
Resp: 8.09

Req: Another: CC(C)C[C@H](CC(=O)NO)C(=O)N[C@@H](Cc1ccccc1)C(=O)N[C@@H](CCCCNC(=O)C(C)F)C(N)=O (stereo partly drawn) [PFP]
Resp: 7.27

Req: Another: CC(C)C[C@H](CC(=O)NO)C(=O)N[C@@H](Cc1ccc(I)cc1)C(=O)N[C@@H](CCCCN)C(N)=O [I-ML5]
Resp: 7.86

Req: Another: CC(C)C[C@H](CC(=O)NO)C(=O)N[C@@H](Cc1ccccc1)C(=O)N[C@@H](CCCCN)C(N)=O [ML5, reference compound]
Resp: 7.42
